The measured values listed here are drawn from ChEMBL document CHEMBL3769315.

Below is a list of entries, each paired with its recorded inhibition at 2 h, 0.01 µM value.
test.system: UniProt:P35367
Sequence (P35367 whole entry): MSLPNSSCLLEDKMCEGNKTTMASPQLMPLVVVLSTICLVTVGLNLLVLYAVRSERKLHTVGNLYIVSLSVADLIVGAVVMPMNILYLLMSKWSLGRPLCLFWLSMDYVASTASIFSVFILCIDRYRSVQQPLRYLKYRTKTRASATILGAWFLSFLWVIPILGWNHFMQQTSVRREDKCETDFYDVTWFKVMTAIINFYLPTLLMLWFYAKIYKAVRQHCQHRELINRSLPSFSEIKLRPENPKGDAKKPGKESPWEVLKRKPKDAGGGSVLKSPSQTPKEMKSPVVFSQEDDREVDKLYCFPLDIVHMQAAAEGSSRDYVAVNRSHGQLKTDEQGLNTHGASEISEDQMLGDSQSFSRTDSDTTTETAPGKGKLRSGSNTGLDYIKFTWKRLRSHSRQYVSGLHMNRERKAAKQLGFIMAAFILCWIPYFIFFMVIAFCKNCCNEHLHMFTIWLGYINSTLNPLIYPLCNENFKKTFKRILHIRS
test: in vitro
condition: PathHunter cells
Supply the numeric figure in %, leaving out any unit text.

Solved entries (count: 5):
molecule | test.system | inhibition at 2 h, 0.01 µM / %
CCN1CCN(C(c2ccc(Cl)cc2)c2ccc(Cl)cc2)CC1 | UniProt:P35367 | 31.7
CN1CCN(C(c2ccccc2)c2ccc(Cl)cc2)CC1 (racemic) [CHLORCYCLIZINE] | UniProt:P35367 | 16
NCCOCCOCCOCCOCCN1CCN(C(c2ccccc2)c2ccc(Cl)cc2)CC1 (racemic) | UniProt:P35367 | 54.1
CN1CCN(C(c2ccc(Cl)cc2)c2ccc(Cl)cc2)CC1 | UniProt:P35367 | 18.5
OCCOCCN1CCN(C(c2ccc(Cl)cc2)c2ccc(Cl)cc2)CC1 | UniProt:P35367 | 23.7

Answer with the recorded inhibition at 2 h, 0.01 µM for the molecule listed here: CN1CCN([C@@H](c2ccccc2)c2ccc(Cl)cc2)CC1
49.5

Answer with the recorded inhibition at 2 h, 0.01 µM for the molecule listed here: Clc1ccc([C@H](c2ccccc2)N2CCNCC2)cc1
88.1

Answer with the recorded inhibition at 2 h, 0.01 µM for the molecule listed here: CCN1CCN([C@@H](c2ccccc2)c2ccc(Cl)cc2)CC1
60.7

Answer with the recorded inhibition at 2 h, 0.01 µM for the molecule listed here: NCCOCCN1CCN(C(c2ccccc2)c2ccc(Cl)cc2)CC1 (racemic)
21.5

###

Below is a list of entries, each paired with its recorded inhibition at 10 µM value.
System: Vesicular stomatitis virus
test: Antiviral activity against Vesicular stomatitis virus G pseudoparticle infected in human Huh7.5.1 cells at 10 uM after 4 hrs by luciferase reporter gene assay
Type: functional
condition: Huh-7, 4 h
Supply the numeric figure in %, leaving out any unit text.

molecule | inhibition at 10 µM [%]
CN1CCN(C(c2ccccc2)c2ccc(Cl)cc2)CC1 (racemic) | 105
OCCOCCN1CCN(C(c2ccc(Cl)cc2)c2ccc(Cl)cc2)CC1 | 109
CN1CCN(C(c2ccc(Cl)cc2)c2ccc(Cl)cc2)CC1 | 119

Answer with the recorded inhibition at 10 µM for the molecule listed here: NCCOCCOCCOCCOCCN1CCN(C(c2ccccc2)c2ccc(Cl)cc2)CC1 (racemic)
99.8

Answer with the recorded inhibition at 10 µM for the molecule listed here: CCN1CCN(C(c2ccc(Cl)cc2)c2ccc(Cl)cc2)CC1
110

Answer with the recorded inhibition at 10 µM for the molecule listed here: CN1CCN([C@@H](c2ccccc2)c2ccc(Cl)cc2)CC1
120

###

System: HepG2
test: Cytotoxicity against human HepG2 cells assessed as ATP level by luminescence analysis
property.name: log10(CC50) (log10 of the value in µM)
Base-10 log of CC50, unit µM.

Solved entries (count: 4):
compound | log10(CC50)
CCN1CCN([C@@H](c2ccccc2)c2ccc(Cl)cc2)CC1 | 1.84
NCCOCCN1CCN(C(c2ccccc2)c2ccc(Cl)cc2)CC1 (racemic) | 0.79
CN1CCN([C@@H](c2ccccc2)c2ccc(Cl)cc2)CC1 | 1.51
CCN1CCN(C(c2ccc(Cl)cc2)c2ccc(Cl)cc2)CC1 | 1.75

For the next question, use this compound.
Look up HepG2 data: log10(CC50) of NCCOCCOCCOCCOCCN1CCN(C(c2ccccc2)c2ccc(Cl)cc2)CC1 (racemic) , then report it.
1.10

###

Below is a list of entries, each paired with its recorded selectivity ratio value.
test: Selectivity index, ratio of CC50 for human Huh7.5.1 cells infected with HCV JFH-1 virus to EC50 for HCV JFH-1 virus

Answer with the recorded selectivity ratio for the compound listed here: c1ccc(C(c2ccccc2)C2CCNCC2)cc1
451

###

test: Metabolic stability in human liver microsomes assessed as half life by LC-MS/MS analysis in presence of NADPH
property.name: half-life (min)
Supply the numeric figure in min, leaving out any unit text.

Answer with the recorded half-life for the compound listed here: CCN1CCN(C(c2ccc(Cl)cc2)c2ccc(Cl)cc2)CC1
30

###

test: Cytotoxicity against human Huh7.5.1 cells assessed as ATP level by luminescence analysis
condition: huh-7
Below is a list of entries, each paired with its recorded CC50 value.
Supply the numeric figure in µM, leaving out any unit text.

Solved entries (count: 2):
compound | result.unit | CC50
CCN1CCN([C@@H](c2ccccc2)c2ccc(Cl)cc2)CC1 | µM | 40
CCCCN1CCN([C@@H](c2ccccc2)c2ccc(Cl)cc2)CC1 | µM | 31.1

Answer with the recorded CC50 for the compound listed here: OCCOCCN1CCN(C(c2ccccc2)c2ccc(Cl)cc2)CC1 (racemic) [HYDROXYZINE]
42.6

Answer with the recorded CC50 for the compound listed here: CN1CCN([C@H](c2ccccc2)c2ccc(Cl)cc2)CC1
37.5

###

test: Cytotoxicity against human Huh7.5.1 cells assessed as ATP level by luminescence analysis
condition: huh-7
property.name: CC50 (µM)
Supply the numeric figure in µM, leaving out any unit text.

compound | CC50 (µM)
CCCCN1CCN([C@H](c2ccccc2)c2ccc(Cl)cc2)CC1 | 40.8
Clc1ccc([C@H](c2ccccc2)N2CCN(C3CCCCC3)CC2)cc1 | 12.3
CN1CCC(N(c2ccccc2)c2ccc(OC(C)(C)C)cc2)CC1 | 78.7
CN1CCN(C(c2ccccc2)c2ccc(Cl)cc2)CC1 (racemic) | 49.8
CC(C)CN1CCN([C@@H](c2ccccc2)c2ccc(Cl)cc2)CC1 | 51.7
CN1CCN([C@@H](c2ccccc2)c2ccc(Cl)cc2)CC1 | 33.4
[2H]C([2H])([2H])N1CCN([C@@H](c2ccccc2)c2ccc(Cl)cc2)CC1 | 77.9
Clc1ccc(C(c2ccc(Cl)cc2)N2CCCCC2)cc1 | 69

Answer with the recorded CC50 for the compound listed here: c1ccc(C(c2ccccc2)C2CCNCC2)cc1
32.5

Answer with the recorded CC50 for the compound listed here: NCCOCCOCCOCCOCCN1CCN(C(c2ccccc2)c2ccc(Cl)cc2)CC1 (racemic)
12.2

###

test: Cmax in CD-1 mouse liver at 10 mg/kg, ip after 24 hrs by UPLC-MS/MS analysis
Format: ADME, organism-based
Parameters: dose 10 mg/kg, route intraperitoneal
property.name: Cmax
Record the result as number plus unit.

Answer with the recorded Cmax for the compound listed here: Clc1ccc([C@H](c2ccccc2)N2CCNCC2)cc1
216 µM

###

Test system: Hepatitis C virus
test: microbe, parasite or virus in culture
property.name: EC50

Look up Hepatitis C virus data: EC50 of CCN1CCN([C@@H](c2ccccc2)c2ccc(Cl)cc2)CC1 , then report it.
≥ 1 µM

###

Tested on: Hepatocyte
condition: human, hepatocytes
property.name: CC50 (µM)
Supply the numeric figure in µM, leaving out any unit text.

compound | CC50, µM
NCCOCCN1CCN(C(c2ccccc2)c2ccc(Cl)cc2)CC1 (racemic) | 8.98

For the next question, use this compound.
Answer with the recorded CC50 for the compound listed here: Clc1ccc([C@H](c2ccccc2)N2CCNCC2)cc1
9.01

###

Below is a list of entries, each paired with its recorded CC50 value.
test: Cytotoxicity against human Huh7.5.1 cells assessed as ATP level by luminescence analysis
condition: huh-7
Supply the numeric figure in µM, leaving out any unit text.

Solved entries (count: 4):
compound | property.name | test.value
CCN1CCN([C@H](c2ccccc2)c2ccc(Cl)cc2)CC1 | CC50 | 37.9
CCCN1CCN([C@@H](c2ccccc2)c2ccc(Cl)cc2)CC1 | CC50 | 39.7
CC(C)CN1CCN([C@H](c2ccccc2)c2ccc(Cl)cc2)CC1 | CC50 | 58.2
CC(C)N1CCN([C@@H](c2ccccc2)c2ccc(Cl)cc2)CC1 | CC50 | 32.4

Answer with the recorded CC50 for the compound listed here: NCCOCCN1CCN(C(c2ccccc2)c2ccc(Cl)cc2)CC1 (racemic)
8.18

Answer with the recorded CC50 for the compound listed here: Clc1ccc([C@H](c2ccccc2)N2CCN(C3CCCC3)CC2)cc1
30.4

###

Below is a list of entries, each paired with its recorded selectivity ratio value.
test: Selectivity index, ratio of CC50 for human Huh7.5.1 cells infected with HCV JFH-1 virus to EC50 for HCV JFH-1 virus
I'd appreciate a reply containing only the number, no unit.

Solved entries (count: 5):
compound | property.name | test.value
Clc1ccc([C@H](c2ccccc2)N2CCNCC2)cc1 | selectivity ratio | 333
CC(C)(C)OC(=O)NCCOCCOCCOCCOCCN1CCN(C(c2ccccc2)c2ccc(Cl)cc2)CC1 (racemic) | selectivity ratio | 95
COc1ccc(CN2CCN([C@@H](c3ccccc3)c3ccc(Cl)cc3)CC2)c(OC)c1 | selectivity ratio | 84
Clc1ccc([C@H](c2ccccc2)N2CCN(C3CCCCC3)CC2)cc1 | selectivity ratio | 69
CN1CCCN(C(c2ccccc2)c2ccc(Cl)cc2)CC1 (racemic) | selectivity ratio | 225

Answer with the recorded selectivity ratio for the compound listed here: CCCN1CCN([C@H](c2ccccc2)c2ccc(Cl)cc2)CC1
2020

Answer with the recorded selectivity ratio for the compound listed here: Clc1ccc(C(c2ccc(Cl)cc2)N2CCCCC2)cc1
4

Answer with the recorded selectivity ratio for the compound listed here: CC(=O)N1CCN([C@@H](c2ccccc2)c2ccc(Cl)cc2)CC1
4

Answer with the recorded selectivity ratio for the compound listed here: Clc1ccc([C@H](c2ccccc2)N2CCN(C3CCCC3)CC2)cc1
1600

Answer with the recorded selectivity ratio for the compound listed here: CCCCN1CCN([C@@H](c2ccccc2)c2ccc(Cl)cc2)CC1
740

Answer with the recorded selectivity ratio for the compound listed here: CC(C)CN1CCN([C@H](c2ccccc2)c2ccc(Cl)cc2)CC1
251
